Task for the reader: assign each of the following compounds its reported activity at 10 µM.
- Test system: HS 578T
- method_notes: NCI one-dose SRB assay
- Format: cell-based
- test_conditions: Homo sapiens, HS 578T (Breast Cancer), 1.00E-5 Molar, read-out: Growth Percent
Respond numerically; units are % and should not be typed.

Incoming: Looking for the measured activity at 10 µM of COc1ccc(C=C(NC(=O)c2ccccc2)C(=O)Nc2ccc(S(N)(=O)=O)cc2)cc1OC , can you help?
Outgoing: 94.8

Incoming: // same read-out, input: Cc1ccc(C=C(NC(=O)c2ccccc2)C(=O)Nc2ccc(S(N)(=O)=O)cc2)cc1
Outgoing: 117

Incoming: Note, next up: NS(=O)(=O)c1ccc(NC(=O)C(=Cc2ccc(Cl)cc2)NC(=O)c2ccccc2)cc1
Outgoing: 101

Incoming: Entry NS(=O)(=O)c1ccc(NC(=O)C(=Cc2ccc(Br)cc2)NC(=O)c2ccccc2)cc1 please
Outgoing: 93.9

Incoming: Check COc1ccc(C=C(NC(=O)c2ccccc2)C(=O)Nc2ccc(S(N)(=O)=O)cc2)cc1 too.
Outgoing: 102

Incoming: Same for NS(=O)(=O)c1ccc(NC(=O)C(=Cc2ccc(Cl)cc2Cl)NC(=O)c2ccccc2)cc1
Outgoing: 89.5

Incoming: Check COc1ccc(C=C(NC(=O)c2ccccc2)C(=O)Nc2ccc(S(N)(=O)=O)cc2)c(OC)c1 too.
Outgoing: 106

Incoming: Please give the result for Cc1ccc(C=C(NC(=O)c2ccccc2)C(=O)Nc2ccc(S(N)(=O)=O)cc2)o1 too.
Outgoing: 76.5
